Recorded values, source ChEMBL document CHEMBL4261633.

- System: HCC1806
- ASSAY_DETAILS: Antiproliferative activity against human HCC1806 cells after 24 hrs by CCK8 assay
- Type: functional, cell-based
- MEASUREMENT_SETUP: HCC1806, 24 h
Entries annotated with measured IC50
READOUT_LABEL: IC50 (µM)

MOLECULE: COC(=O)[C@]1(Cc2ccc3c(c2)C=CC(C)(C)O3)OC(=O)C(O)=C1c1ccc(O)cc1
COMPARATIVE_SIGN: >
ASSAY_VALUE: 20
--
MOLECULE: COC(=O)[C@]1(Cc2ccc3c(c2)C[C@H](O)C(C)(C)O3)OC(=O)C(O)=C1c1ccc(O)cc1
COMPARATIVE_SIGN: >
ASSAY_VALUE: 20
--
MOLECULE: COC(=O)[C@]1(Cc2ccc(O)c(CC=C(C)C)c2)OC(=O)C(O)=C1c1ccc(O)c(CC=C(C)C)c1
COMPARATIVE_SIGN: =
ASSAY_VALUE: 17.6
--
MOLECULE: COC(=O)[C@]1(Cc2ccc(O)c(CC=C(C)C)c2)OC(=O)C(O)=C1c1ccccc1
COMPARATIVE_SIGN: =
ASSAY_VALUE: 18.7
--
MOLECULE: COC(=O)[C@]1(Cc2ccc3c(c2)CC(O)C(C)(C)O3)OC(=O)C(O)=C1c1ccccc1 (some centres not stated)
COMPARATIVE_SIGN: >
ASSAY_VALUE: 20
--
MOLECULE: COC(=O)[C@]1(Cc2ccc3c(c2)C[C@H](C(C)(C)O)O3)OC(=O)C(O)=C1c1ccc(O)cc1
COMPARATIVE_SIGN: >
ASSAY_VALUE: 20
--
MOLECULE: CC(=O)O[C@H]1C(=O)[C@@]2(C)[C@H]([C@H](OC(=O)c3ccccc3)[C@]3(O)C[C@H](OC(=O)[C@H](O)[C@@H](NC(=O)c4ccccc4)c4ccccc4)C(C)=C1C3(C)C)[C@]1(OC(C)=O)CO[C@@H]1C[C@@H]2O
COMPARATIVE_SIGN: =
ASSAY_VALUE: 0.001

* * *

- Test system: HT-29
- ASSAY_DETAILS: Antiproliferative activity against human HT-29 cells after 24 hrs by CCK8 assay
- Assay type: functional, cell-based
- MEASUREMENT_SETUP: HT-29, 24 h
pIC50: −log10 of the molar value.
READOUT_LABEL: pIC50

COMPOUND: COC(=O)[C@]1(Cc2ccc3c(c2)CC(O)C(C)(C)O3)OC(=O)C(O)=C1c1ccccc1 (some centres undefined)
READOUT_LABEL: pIC50
ASSAY_VALUE: < 4.70

COMPOUND: COC(=O)[C@]1(Cc2ccc3c(c2)C[C@H](C(C)(C)O)O3)OC(=O)C(O)=C1c1ccc(O)cc1
READOUT_LABEL: pIC50
ASSAY_VALUE: < 4.70

COMPOUND: COC(=O)[C@]1(Cc2ccc3c(c2)CCC(C)(C)O3)OC(=O)C(O)=C1c1ccc(O)cc1
READOUT_LABEL: pIC50
ASSAY_VALUE: < 4.70

COMPOUND: COC(=O)[C@]1(Cc2ccc3c(c2)CC(C(C)(C)O)O3)OC(=O)C(O)=C1c1ccccc1 (some centres undefined)
READOUT_LABEL: pIC50
ASSAY_VALUE: < 4.70
